# System: A375 WT cells (A375 melanoma)
# ASSAY_INFO: MTT assay
# Type: cell-based
# PROTOCOL_CONDITIONS: Homo sapiens, A-375, 24-hour treatment, read-out: IC50 (cell viability)
READOUT_LABEL: IC50

Form field: reported IC50 of Cc1ccc(N=Nc2ccc(C)cc2NC(=O)Nc2ccccc2F)cc1 [compound 58]
150 µM
